target-of-assay: Mitogen-activated protein kinase 7 (Homo sapiens)
assay-notes: ERK5 transactivation activators in reporter cells, primary screen, cell-based, HTS (AID 1508626);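 also: luciferase driven by Gal4-ERK5 fusion binding five Gal4 sites before minimal TATA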
particulars: HeLa Gal4-ERK5 transactivation, 18 h, at 5 µM
Activity calls are given as the source filed them.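 The calls were made as follows: active = luciferase signal above three times the same-plate solvent-only control wells; inactive = the rest.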
Field 'call' accepts active, inactive

Please indicate how the test categorized CC(C)=CCc1c2c(c3occ(-c4ccc(O)cc4)c(=O)c3c1O)C=CC(C)(C)O2 . active

Please indicate how the test categorized C=C[C@H]1CN2CC[C@H]1C[C@@H]2[C@@H](O)c1ccnc2ccc(OC)cc12 . inactive

Please indicate how the test categorized COc1ccc(-c2coc3cc(O)ccc3c2=O)c(O)c1O . inactive

Please indicate how the test categorized CC(=O)O[C@H]1CC[C@@]2(C)[C@H](CC[C@@H]3[C@@H]2CC[C@]2(C)[C@@H]4[C@H](C[C@@H]32)O[C@]2(CC[C@@H](C)CO2)[C@H]4C)C1 . inactive

Please indicate how the test categorized COc1cc(C(C)=O)cc(OC)c1O . inactive

----------
Test system: Hepatitis C virus NS3 helicase
assay-notes: HCV NS3 helicase inhibitors, primary screen, biochemical, fluorescence polarization, NIH Clinical Collection (AID 743270)
particulars: NS3 helicase binding to Cy5-dT15 DNA, stronger effect = higher value, concentration not given here
The source made the active and inactive calls. How the calls were made is not given here.
observation-type: inhibition

molecule: CN1C(=O)CC[C@H]1c1cccnc1
inhibition: 5.15% (inactive)
--
molecule: CNCCC=C1c2ccccc2CCc2ccccc21
inhibition: -5.91% (inactive)
--
molecule: Cn1cc[nH]c1=S
inhibition: -3.18% (inactive)
--
molecule: C#C[C@]1(O)CC[C@H]2[C@@H]3CCC4=CC(=O)CC[C@@H]4[C@H]3CC[C@@]21C
inhibition: 1.36% (inactive)
--
molecule: O=C(O[C@@H]1Cc2c(O)cc(O)cc2O[C@@H]1c1cc(O)c(O)c(O)c1)c1cc(O)c(O)c(O)c1
inhibition: -3.56% (inactive)
--
molecule: CC(=O)N=c1sc(S(N)(=O)=O)nn1C
inhibition: -0.45% (inactive)
--
molecule: CC[C@H](C)C(=O)O[C@H]1CCC=C2C=C[C@H](C)[C@H](CC[C@@H]3C[C@@H](O)CC(=O)O3)[C@H]21
inhibition: 0.66% (inactive)
--
molecule: CS(=O)(=O)c1ccc(C2=C(c3ccccc3)C(=O)OC2)cc1
inhibition: 3.56% (inactive)

Fill in inhibition for record C[C@H]1COc2c(N3CCN(C)CC3)c(F)cc3c(=O)c(C(=O)O)cn1c23 -3.56% (inactive)

Fill in inhibition for record NC(=O)c1cccnc1 0.66% (inactive)

Fill in inhibition for record CCC(=O)OCC(=O)[C@@]1(OC(=O)CC)[C@@H](C)C[C@H]2[C@@H]3CCC4=CC(=O)C=C[C@]4(C)[C@@]3(Cl)[C@@H](O)C[C@@]21C 0.45% (inactive)

----------
assay-notes: sensitizers of A549 cells to miR-34 induction, primary screen, imaging, A549 dox-inducible miR-34, nuclei and caspase counts (AID 1347080)
particulars: A549 miR-34 inducible, Hoechst nuclei count, 48 h; measured here: total cells with miR-34 induction; stronger effect = lower value
Examples of compounds with documented cell count follow.

compound: CC1=C(C/C=C(\C)CCC[C@H](C)CCC[C@H](C)CCCC(C)C)C(=O)c2ccccc2C1=O
value: 11600

Fill in cell count for record COc1cc(C(=O)NCCCCCC(=O)O)cc(OC)c1OC 11100

Fill in cell count for record CNC1CCCN(c2c(F)cc3c(=O)c(C(=O)O)cn(C4CC4)c3c2OC)C1 (stereo unspecified) 8330

Fill in cell count for record O=C(O)c1ccc(-n2nc(-c3ccccc3O)nc2-c2ccccc2O)cc1 4300

----------
Tested on: Hepatitis C virus NS3 helicase
assay-notes: HCV NS3 helicase inhibitors, primary screen, biochemical, fluorescence polarization, LOPAC1280 library (AID 687035)
particulars: Purified HCV NS3 helicase, Cy5-dT15 ssDNA binding fluorescence polarization; stronger effect = higher value; concentration not given here
observation-type: inhibition (%)
Report as a plain number; the unit % is understood.

compound: NC(N)=NC(N)=Nc1ccccc1
inhibition, %: -3
--
compound: CCN1CCCC1CNC(=O)c1cc(S(N)(=O)=O)ccc1OC (centres undefined)
inhibition, %: -1
--
compound: CCN(CC)C(=O)c1ccc(O)c(OC)c1
inhibition, %: 0
--
compound: COc1ccc2cc([C@H](C)C(=O)O)ccc2c1
inhibition, %: -6

Please respond with reported inhibition (system Hepatitis C virus NS3 helicase) for CCCN(CCC)CCc1cccc2c1CC(=O)N2 . -3

Please respond with reported inhibition (system Hepatitis C virus NS3 helicase) for O=C1Cc2cc(CCN3CCN(c4nsc5ccccc45)CC3)c(Cl)cc2N1 . 2

Please respond with reported inhibition (system Hepatitis C virus NS3 helicase) for Cn1c(=O)[nH]c2ncn(C)c2c1=O . -3

Please respond with reported inhibition (system Hepatitis C virus NS3 helicase) for NCCCCC(=O)O . -1

Please respond with reported inhibition (system Hepatitis C virus NS3 helicase) for OC(CN1CCC(Cc2ccc(F)cc2)CC1)c1ccc(Cl)cc1 (centres undefined) . -3

Please respond with reported inhibition (system Hepatitis C virus NS3 helicase) for CCCCOc1cc(CC2CNC(=O)N2)ccc1OC (centres undefined) . -2

Please respond with reported inhibition (system Hepatitis C virus NS3 helicase) for C=C(C)C1CC=C(C(=O)O)CC1 (centres undefined) . 2

----------
assay-notes: protection against mutant huntingtin cytotoxicity, PC12 cells, LDH release (AID 1610)
particulars: PC12 mutant huntingtin toxicity, final LDH at 4 uM, stronger effect = lower value
Results filed as inconclusive are left out.
observation-type: normalised LDH release
Quick one: just the number, no unit, thanks!

Please review the entries below; each comes with its answer.
molecule: COc1cc2ccc(=O)oc2cc1O
value: 0.874
//
molecule: COc1ccc(-c2coc3cc(O)cc(O)c3c2=O)cc1
value: 1.03
//
molecule: CN1CCc2c(c3ccccc3n2Cc2ccccc2)C1
value: 0.901
//
molecule: CC(=O)c1c(O)c(C)c(O)c2c1OC1=CC(=O)C(C(C)=O)C(=O)C12C (centres undefined)
value: 1.02
//
molecule: NC(=NCc1ccccc1)NC(=O)c1nc(Cl)c(N)nc1N
value: 1.01

Fill in normalised LDH release for record CC(C)=CCC1=C(O)c2ccccc2C(=O)C1=O 0.727

Fill in normalised LDH release for record O=C1C=CC(=C(c2ccc(O)cc2)c2ccc(O)cc2)C=C1 0.611

Fill in normalised LDH release for record CCOc1ccc2c(c1)C(C)=CC(C)(C)N2 1.06

Fill in normalised LDH release for record O=C(O)c1cc2cc(Cc3cccnc3)ccc2o1 1.48

----------
assay-notes: glucagon-like peptide 1 release enhancers, primary assay, NCI-H716 cell line, NPC library (AID 1117341)
particulars: NCI-H716 cells, at 10 µM, stronger effect = higher value
Examples of compounds with documented GLP1 secretion stimulation follow.
Report as a plain number; the unit % is understood.

compound: N[C@@H](Cc1ccc(O)cc1)C(=O)O
observation-type: GLP1 secretion stimulation
unit-tag: %
value: 3

compound: OC(CN1CCC(Cc2ccc(F)cc2)CC1)c1ccc(Cl)cc1 (stereo not given)
observation-type: GLP1 secretion stimulation
unit-tag: %
value: 2.9

compound: CCCS(=O)c1ccc2nc(NC(=O)OC)[nH]c2c1 (stereo not given)
observation-type: GLP1 secretion stimulation
unit-tag: %
value: 0.6

Fill in GLP1 secretion stimulation for record CC(=O)OCC(=O)[C@@]1(O)CC[C@H]2[C@@H]3CCC4=CC(=O)C=C[C@]4(C)[C@@]3(F)[C@@H](O)C[C@@]21C 3.3

Fill in GLP1 secretion stimulation for record CC(O)(P(=O)(O)O)P(=O)(O)O 1.6

----------
assay-notes: ovarian cancer cell viability with rucaparib, profiling panel, oncology-focused library, rucaparib conditional (AID 1508598)
particulars: patient-derived ovarian cancer cells, CellTiter-Glo viability, 144 h; at 0.0781 µM; OCI-C5x cells; with rucaparib 10 µM; 100% = cells with rucaparib alone
Activity calls are given as the source filed them.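 The calls were made as follows: active = normalized viability below 100% at a tested concentration; inactive = the rest.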
Field 'call' accepts label 1 (active), label 0 (inactive)

Please indicate how the test categorized CN(N=O)C(=O)N[C@@H]1[C@@H](O)[C@H](O)[C@@H](CO)O[C@@H]1O . label 0

Please indicate how the test categorized O=C(NOCC1CC1)c1ccc(F)c(F)c1Nc1ccc(I)cc1Cl . label 0

Please indicate how the test categorized Cc1ccc(-n2nc(C(C)(C)C)cc2NC(=O)Nc2ccc(OCCN3CCOCC3)c3ccccc23)cc1 . label 0

----------
assay-notes: survival rescue of mitochondrial mutant cells in low glucose, primary screen, MELAS cybrids, Rieske KO mouse fibroblasts, CellTiter-Glo (AID 1508586);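 also: z relative to plate mean and SD of compound and empty wells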
particulars: Rieske KO mouse fibroblast survival, CellTiter-Glo 72 h
observation-type: z-score
Quick one: just the number, no unit, thanks!

molecule: CN1C2CCC1CC(OC(=O)C(CO)c1ccccc1)C2 (configuration not stated)
z-score: -0.261
//
molecule: COc1cc(Nc2c(C#N)cnc3cc(OCCCN4CCN(C)CC4)c(OC)cc23)c(Cl)cc1Cl
z-score: -0.399
//
molecule: CN(C)C(=O)COC(=O)Cc1ccc(OC(=O)c2ccc(N=C(N)N)cc2)cc1
z-score: 0.0145
//
molecule: CC(=O)OCC(=O)[C@@]1(O)CC[C@H]2[C@@H]3CCC4=CC(=O)C=C[C@]4(C)[C@@]3(F)[C@@H](O)C[C@@]21C
z-score: 0.0318

Fill in z-score for record C[C@H](O)C(=O)Nc1c(I)c(C(=O)NC(CO)CO)c(I)c(C(=O)NC(CO)CO)c1I -0.888

Fill in z-score for record CC(C)NCC(O)COc1ccc(CC(N)=O)cc1 (configuration not stated) -0.19

Fill in z-score for record CC(C)n1c(/C=C/[C@@H](O)C[C@@H](O)CC(=O)O)c(-c2ccc(F)cc2)c2ccccc21 -0.983

Fill in z-score for record CC(C)OC(=O)C(C(=O)OC(C)C)=C1SC=CS1 0.382

Fill in z-score for record CN(CCCCCCCCCCN(C)C(=O)Oc1cccc([N+](C)(C)C)c1)C(=O)Oc1cccc([N+](C)(C)C)c1 -0.227

Fill in z-score for record O=C(O)Cc1cccc2ccccc12 -0.24

Fill in z-score for record NCCC(O)(P(=O)(O)O)P(=O)(O)O -0.434

Fill in z-score for record CCOC(=O)c1c(C)n(C)c2ccc(O)cc12 0.616

Fill in z-score for record O=C1NCCN1CCN1CCC(c2cn(-c3ccc(F)cc3)c3ccc(Cl)cc23)CC1 0.239

Fill in z-score for record CCC(C)(Oc1ccc(C2(c3ccc(OC(C)(CC)C(=O)O)cc3)CCCCC2)cc1)C(=O)O (configuration not stated) 0.575

Fill in z-score for record CC(C)(C)C(=O)OCOC(=O)[C@@H]1N2C(=O)[C@@H](NC(=O)[C@H](N)c3ccccc3)[C@H]2SC1(C)C -0.251

Fill in z-score for record CN1C[C@H]2c3ccccc3Oc3ccc(Cl)cc3[C@@H]2C1 0.408

Fill in z-score for record COc1ccc(-c2cc(=O)c3c(OC)c(OC)c(OC)c(OC)c3o2)cc1OC 2.19

Fill in z-score for record CCN(CC)C(=O)c1ccc(O)c(OC)c1 -0.406

Fill in z-score for record CC(S)C(=O)NCC(=O)O (configuration not stated) 0.558

Fill in z-score for record CN(C)CC/C=C1\c2ccccc2Sc2ccc(Cl)cc21 0.968

Fill in z-score for record CC(C)(CO)[C@@H](O)C(=O)NCCCO 0.0963

Fill in z-score for record Cc1c(F)c(N2CCNC(C)C2)cc2c1c(=O)c(C(=O)O)cn2C1CC1 (configuration not stated) -0.0779
